biological target: full length spike (S) protein of SARS-CoV-2 (SARS-CoV-2, UniProt P0DTC2 14-1273); experiment: cell-based or functional assay
TEST READOUT: Neutralizing activity (%) Mean at 0.0228624 µg/ml
Only the number, expressed in %, is required.

Just so you know, measured Neutralizing activity (%) Mean at 0.0228624 µg/ml for P2B-2G11 (antibody, V domains shown) VH: EVQLVESGGGLVQPGRSLRLSCAASGFTFDDYAMHWVRQAPGKGLEWVSGISWNGGIIGYADSVKGRFTISRDNAKTSLYLQMNSLKPEDTALYYCAKVAGRGDYDYYYGMDVWGQGTTVTVSS VL: QSVLTQPPSVSGAPGQRVTISCTGSSSNIGAGYDVHWYQQLPGTAPKLLIYGNNNRPSGVPDRFSGSKSGTSASLAITGLQAEDEADYYCQSYDSSLSGSVFGGGTKLTVLG came out at 3.81

// field: Neutralizing activity (%) Mean at 0.0228624 µg/ml; key: P2A-1B3 (antibody, V domains shown) VH: EVQLVESGGGLVQPGGSLRLSCVASGFSFNRYSMNWLRQTPRKGLEWLSYISASGNTIYYADSVRGRFTTSRDNAKNTLYLQMNSLRDDDTAVYFCARPAMVREGTYNWFDPWGQGTLVTVSS VL: EIVLTQSPGTLSLSPGERATLSCRASQSVSNDYLAWYQQKPGQAPRLLIYYASSRATGIPDRFSGSGSGTDFTLTISRLEPGDSAVYYCQQYGDSPPITFGQGTRLEIKR ; value = 11.5

Quick note, Neutralizing activity (%) Mean at 0.0228624 µg/ml for P2B-2F6 (antibody, V domains shown) VH: QVQLQESGPGLVKPSETLSLTCTVSGYSISSGYYWGWIRQPPGKGLEWIGSIYHSGSTYYNPSLKTRVTISVDTSKNQFSLKLSSVTAADTAVYYCARAVVGIVVVPAAGRRAFDIWGQGTMVTVSS VL: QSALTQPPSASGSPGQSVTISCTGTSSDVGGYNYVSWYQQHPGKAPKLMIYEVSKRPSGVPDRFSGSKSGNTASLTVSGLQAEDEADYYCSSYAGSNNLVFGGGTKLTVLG landed at 39.4

Entry P2A-1A9 (antibody, V domains shown) VH: EVQLVESGGGLVQPGRSLRLSCAASGFTFDDYAMHWVRQVPGKGLEWVSGISWNGGIIGYADSVKGRFTISRDNAKTSLYLQMNSLRAEDTALYYCAKVAGRGDYDYYYGMDVWGQGTTVTVSS VL: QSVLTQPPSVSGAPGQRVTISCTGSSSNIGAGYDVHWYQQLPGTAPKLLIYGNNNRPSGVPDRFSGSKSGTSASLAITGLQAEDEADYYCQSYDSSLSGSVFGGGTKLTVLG ; Neutralizing activity (%) Mean at 0.0228624 µg/ml = 12.5

Lab note: P2B-2G4 (antibody, V domains shown) VH: QVQLVESGGGVVQPGRSLRLSCAASGFTFSSYGMHWVRQAPGKGLEWVAVIWYDGSNKYYADSVKGRFTISRDNSKNTLYLQMNSLRAEDTAVYYCARGAAMVWLDYWGQGTLVTVSS VL: QSALTQPRSVSGSPGQSVTISCTGTSSDVGGYNYVSWYQQHPGKAPKLMIYDVSKRPSGVPDRFSGSKSGNTASLTISGLQAEDEADYYCCSYAGSYTFVVFGGGTKLTVLG gave Neutralizing activity (%) Mean at 0.0228624 µg/ml of -3.33

Just so you know, measured Neutralizing activity (%) Mean at 0.0228624 µg/ml for P2A-1A8 (antibody, V domains shown) VH: EVQLVESGGDLVQPGRSLRLSCAASGFAFDDYAMHWVRQAPGKGLEWVSGSTWNSGTIAYADSVKGRFTISRDNAKKSLYLQMNSLRTEDTALYYCAKLGGYSDYDYPRPGDHYYGLDVWGQGTTVTVSS VL: QSALTQPASVSGSPGQSITISCTGTSSDVGSYNLVSWYQQHPGKVPKLLIYDVNKRPSGISNRFSGSKSGNTASLTISGLQAEDEADYYCRSYTDSNTYVFGTGTKVTVLG came out at 4.34
